assay: BTB spectrophotometric assay of kinetic constants, substrate phenylmalonate; format: biochemical; settings: substrate 2-phenylmalonic acid (1); His6-tagged enzyme; BTB method
Experimental readout: Km (mM)
Report only the number, with the unit mM understood.

stdin: # lookup: Km of protein BAA30082.1 from Pyrococcus horikoshii OT3: Hypothetical arylmalonate decarboxylase [Pyrococcus horikoshii OT3], SEQ ID NO: 6 (protein, listed as Pyrococcus horikoshii) MYGWRRRIGLIVPSSNTTMEPEFWKMAPEGVSIHTARMRLREVTEESLLEMERHAKDAALELADAEVDVIVYGCTSGSLIKGKGYDKEIAKNLEEASGIKTITTSTAVLNALNTLDIQKVVVATPYIDSVNEREKEFLEANGIEVLRIKGLGIVKNTEIGRQEPWVAYKLALEVYTPEADGLFISCTNFRTIEIIDKLEVELGVPVVTSNQATMWYALKTMKVKEKYDMYGTLLKEKLLEHHHHHH
stdout: 41.7

stdin: # lookup: Km of protein EAN08019.1 from Mesorhizobium sp. BNC1: Asp/Glu racemase [Mesorhizobium sp. BNC1], SEQ ID NO: 4, shown to have AMDase activity (protein, listed as Mesorhizobium sp.) MSAEDPVIGLIVPPAAGLVPPEAVAMYPEVTFHASGLGLKEMTPCGYAGVIDLVGDHAERHAQAGAQAVALMGTSLSFFRGAAFNAELITHMSNRSGLPATTMSQAVVDELKSHGARRIAVVTAYRQDVNNLLAAFLNEHGIEARSLKSLGITSVADVAGTPAKRLLQLCKEAVHDAGPVDAVLISCGGLHTLDVIVDVEISTGLPVVTSATAGVRGAVGLLKRSAETAEHATSKFLTGRALEHHHHHH
stdout: 9.6

stdin: # lookup: Km of protein NP_888076.1 from Bordetella bronchiseptica RB50: Putative decarboxylase [Bordetella bronchiseptica RB50], SEQ ID NO: 8 (protein, listed as Bordetella bronchiseptica) MPTPTQMKTTARYRPYAWRAKVGLIVPSTNTINEPEFYRLAPDGVTIHTGRAINAGPATQENYDRMARGVLEAADLIKTAEVDVVAYGCTSGSIVCSLDELCDGMSERVGVPAIATAGAVVAALRALGVRRVAVGTPYIDFVNQREREFLEQYGFEVVSIEGMDLGHTQEERRDIGRVPPQSTFQLARDIDRPQAEAIFLSCTNLATLDMIERIENELGKPVVTSNQATFWACLRLLGLSCAIPGYGRLLTDCLAPITRASYALALEHHHHHH
stdout: 10
